- study target: UniProtKB Q9UM73
- Sequence (Q9UM73 whole entry): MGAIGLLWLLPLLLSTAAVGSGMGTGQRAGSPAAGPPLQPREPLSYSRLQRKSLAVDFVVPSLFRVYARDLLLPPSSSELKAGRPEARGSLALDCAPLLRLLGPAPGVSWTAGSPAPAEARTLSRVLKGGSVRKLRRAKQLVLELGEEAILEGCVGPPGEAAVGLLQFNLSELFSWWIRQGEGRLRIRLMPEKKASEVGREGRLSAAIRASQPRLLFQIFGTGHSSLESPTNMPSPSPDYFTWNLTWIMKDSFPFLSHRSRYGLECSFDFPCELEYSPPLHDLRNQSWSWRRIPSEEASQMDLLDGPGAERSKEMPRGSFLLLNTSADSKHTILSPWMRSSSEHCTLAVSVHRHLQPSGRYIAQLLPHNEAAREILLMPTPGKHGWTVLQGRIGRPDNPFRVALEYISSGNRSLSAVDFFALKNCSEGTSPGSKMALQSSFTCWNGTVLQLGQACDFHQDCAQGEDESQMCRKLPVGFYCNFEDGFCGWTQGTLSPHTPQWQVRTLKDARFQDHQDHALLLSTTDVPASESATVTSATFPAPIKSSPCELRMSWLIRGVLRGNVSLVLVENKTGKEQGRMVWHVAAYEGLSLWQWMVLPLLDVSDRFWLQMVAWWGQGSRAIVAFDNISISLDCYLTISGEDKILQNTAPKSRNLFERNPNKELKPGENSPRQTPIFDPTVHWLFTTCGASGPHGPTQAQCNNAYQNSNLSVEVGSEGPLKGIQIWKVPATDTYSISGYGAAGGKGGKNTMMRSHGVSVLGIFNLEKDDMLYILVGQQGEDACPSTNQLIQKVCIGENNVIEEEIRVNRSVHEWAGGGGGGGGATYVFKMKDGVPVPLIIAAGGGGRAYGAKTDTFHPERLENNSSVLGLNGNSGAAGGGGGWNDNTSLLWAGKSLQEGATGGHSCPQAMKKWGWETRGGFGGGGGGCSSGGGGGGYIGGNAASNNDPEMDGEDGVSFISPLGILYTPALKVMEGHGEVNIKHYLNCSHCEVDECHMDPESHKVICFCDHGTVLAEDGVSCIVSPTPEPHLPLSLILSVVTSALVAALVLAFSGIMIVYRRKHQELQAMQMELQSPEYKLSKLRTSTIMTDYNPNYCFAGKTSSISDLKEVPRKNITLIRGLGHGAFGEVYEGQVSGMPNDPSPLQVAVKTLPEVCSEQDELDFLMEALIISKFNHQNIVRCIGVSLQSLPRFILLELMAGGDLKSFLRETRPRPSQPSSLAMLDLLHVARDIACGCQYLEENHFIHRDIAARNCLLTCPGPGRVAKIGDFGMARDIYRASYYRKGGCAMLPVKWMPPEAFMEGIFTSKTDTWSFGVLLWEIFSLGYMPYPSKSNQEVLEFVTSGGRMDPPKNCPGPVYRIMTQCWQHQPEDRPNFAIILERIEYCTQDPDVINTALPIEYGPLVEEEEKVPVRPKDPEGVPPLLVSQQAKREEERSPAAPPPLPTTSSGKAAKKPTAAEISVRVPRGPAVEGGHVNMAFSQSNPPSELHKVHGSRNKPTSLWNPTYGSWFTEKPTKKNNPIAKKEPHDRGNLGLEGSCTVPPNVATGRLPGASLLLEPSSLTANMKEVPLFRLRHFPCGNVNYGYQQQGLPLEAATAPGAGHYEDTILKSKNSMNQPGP
attribute measured: pIC50
// pIC50 here means minus log10 of the molar concentration (mol/L)

Observed pIC50 on UniProtKB Q9UM73, entry COc1cc(N2CCC(N(C)C)CC2)ccc1Nc1ncc(Cl)c(Nc2ccccc2C(=O)C(N)=O)n1 , equals 7.55
